# study-system: MAGE-A1 target antigen peptide … presented by HLA-A*02:01 on cells (human)
# protocol-details: cell-based or functional assay
Quick reference for EC50 Value (M), JKR9 reporter activation by peptide-loaded T2 cells among some binders
Response body: numeric value in M, unit text excluded.

According to the records, this binder A1A2-M01-617 (TCR, V domains shown) Valpha: GEDVEQSLFLSVREGDSSVINCTYPDMFSTYLYWYKQEPGAGLQLLTYIFAFMQMKQDQRLTVLLNKKDKHLSLRIADTQTGDSAIYFCAGSGGGTDKLIFGTGTRLQVFP Vbeta: GAVVSQHPSWVICKSGTSVKIECRSLDFEATTMFWYRQFPKQSLMLMATSNEGDQATYEQGVEKDKFLINHASLTLSTLTVTSAHPEDSSFYICSAREPGQGPWEQYFGPGTRLTVT displays EC50 Value (M), JKR9 reporter activation by peptide-loaded T2 cells of 2.61e-08

According to the records, this binder A1A2-M01-626 (TCR, V domains shown) Valpha: GEDVEQSLFLSVREGDSSVINCTYPDMFSTYLYWYKQEPGAGLQLLTYIFAFMQMKQDQRLTVLLNKKDKHLSLRIADTQTGDSAIYFCAGSGGGTDKLIFGTGTRLQVFP Vbeta: GAVVSQHPSWVICKSGTSVKIECRSLDFPIERMFWYRQFPKQSLMLMATTDYGSKATYEQGVEKDKFLINHASLTLSTLTVTSAHPEDSSFYICSAREPGQGPFEQYFGPGTRLTVT displays EC50 Value (M), JKR9 reporter activation by peptide-loaded T2 cells of 2.26e-08

According to the records, this binder A1A2-M01-624 (TCR, V domains shown) Valpha: GEDVEQSLFLSVREGDSSVINCTYQYGMSTYLYWYKQEPGAGLQLLTYIFSFMDMKQDQRLTVLLNKKDKHLSLRIADTQTGDSAIYFCAGSGGGTDKLIFGTGTRLQVFP Vbeta: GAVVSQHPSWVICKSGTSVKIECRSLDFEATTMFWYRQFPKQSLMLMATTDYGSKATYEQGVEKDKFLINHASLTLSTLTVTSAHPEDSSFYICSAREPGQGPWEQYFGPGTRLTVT displays EC50 Value (M), JKR9 reporter activation by peptide-loaded T2 cells of 2.59e-08

According to the records, this binder A1A2-M01-613 (TCR, V domains shown) Valpha: GEDVEQSLFLSVREGDSSVINCTYTDSSLTYLYWYKQEPGAGLQLLTYIFSFMDMKQDQRLTVLLNKKDKHLSLRIADTQTGDSAIYFCAGSGGGTDKLIFGTGTRLQVFP Vbeta: GAVVSQHPSWVICKSGTSVKIECRSLDFQATTMFWYRQFPKQSLMLMATTDYGSKATYEQGVEKDKFLINHASLTLSTLTVTSAHPEDSSFYICSAREPGQGPWEQYFGPGTRLTVT displays EC50 Value (M), JKR9 reporter activation by peptide-loaded T2 cells of 2.62e-08

According to the records, this binder A1A2-M01-616 (TCR, V domains shown) Valpha: GEDVEQSLFLSVREGDSSVINCTYTDSSQTYLYWYKQEPGAGLQLLTYIFAFMQMKQDQRLTVLLNKKDKHLSLRIADTQTGDSAIYFCAGSGGGTDKLIFGTGTRLQVFP Vbeta: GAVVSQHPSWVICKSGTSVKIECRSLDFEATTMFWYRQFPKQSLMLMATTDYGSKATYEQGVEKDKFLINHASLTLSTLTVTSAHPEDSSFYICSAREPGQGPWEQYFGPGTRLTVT displays EC50 Value (M), JKR9 reporter activation by peptide-loaded T2 cells of 3.23e-08

According to the records, this binder A1A2-M01-612 (TCR, V domains shown) Valpha: GEDVEQSLFLSVREGDSSVINCTYVDPYSTYLYWYKQEPGAGLQLLTYIFSFMDMKQDQRLTVLLNKKDKHLSLRIADTQTGDSAIYFCAGSGGGTDKLIFGTGTRLQVFP Vbeta: GAVVSQHPSWVICKSGTSVKIECRSLDFEATTMFWYRQFPKQSLMLMATSNEGSKATYEQGVEKDKFLINHASLTLSTLTVTSAHPEDSSFYICSAREPWDPWYEQYFGPGTRLTVT displays EC50 Value (M), JKR9 reporter activation by peptide-loaded T2 cells of 2.3e-08

According to the records, this binder A1A2-M01-619 (TCR, V domains shown) Valpha: GEDVEQSLFLSVREGDSSVINCTYTDSSMTYLYWYKQEPGAGLQLLTYIFSFMDMKQDQRLTVLLNKKDKHLSLRIADTQTGDSAIYFCAGSGGGTDKLIFGTGTRLQVFP Vbeta: GAVVSQHPSWVICKSGTSVKIECRSLDFEATTMFWYRQFPKQSLMLMATTDYGSKATYEQGVEKDKFLINHASLTLSTLTVTSAHPEDSSFYICSAREPGQGPYEQYFGPGTRLTVT displays EC50 Value (M), JKR9 reporter activation by peptide-loaded T2 cells of 2.74e-08

According to the records, this binder A1A2-M01-620 (TCR, V domains shown) Valpha: GEDVEQSLFLSVREGDSSVINCTYTDSSQTYLYWYKQEPGAGLQLLTYIFSNMDMKQDQRLTVLLNKKDKHLSLRIADTQTGDSAIYFCAGSGGGTDKLIFGTGTRLQVFP Vbeta: GAVVSQHPSWVICKSGTSVKIECRSLDFEATTMFWYRQFPKQSLMLMATTDYGSKATYEQGVEKDKFLINHASLTLSTLTVTSAHPEDSSFYICSAREPGQAWSDQYFGPGTRLTVT displays EC50 Value (M), JKR9 reporter activation by peptide-loaded T2 cells of 2.5e-08
